- System: Fibroblast
- methodDescription: Incucyte cell viability with human fibroblast; also: unitless GR value; below 1 slowed growth and below 0 cell loss
- Assay type: toxicity, cell-based
- protocolConditions: 18 h, 10 µM, compound concentration 10 uM, replicate number 2
Think of 0.6 as a floor: if Growth Rate stands on it or above, it is 1; beneath it, -1.

Check this compound for Growth Rate at or above 0.6: O=C(Nc1ccc(C(O)(C(F)(F)F)C(F)(F)F)cc1)c1ccc(C(F)(F)F)cc1
-1

Form field: Growth Rate at least 0.6? Entry: Fc1cccc(-n2cnc3c(NCc4nc5ccc(F)c(F)c5[nH]4)nc(N4CCOCC4)nc32)c1
-1

Decide: is the reported value of Growth Rate for COc1cc(C)c(S(=O)(=O)N(C)CCOCC(=O)N(C)[C@H]2CCC[C@@H](N3CCN(C)CC3)C2)c(C)c1.O=C(O)C(O)C(O)C(=O)O equal to or greater than 0.6?
1

Does the compound CC[C@H](CC(=O)O)n1c(=O)c2ncccc2n(Cc2cn(C)c3cc(C)cc(C)c23)c1=O have recorded Growth Rate that is 0.6 or more?
-1

Form field: Growth Rate at least 0.6? Entry: C#Cc1cnc2[nH]cc(-c3cccc4c3CCN4C(=O)[C@@H]3CCCN3C#N)c2c1
-1

Answer whether Growth Rate of CCn1ccc(Nc2ncc3c(n2)-c2c(nn(C)c2-c2ccc(-c4cnn(C)c4)cc2Cl)CC3)n1 is greater than or equal to 0.6.
-1

Would you say CCOc1ccc(S(=O)(=O)Nc2ccc(Cl)cc2C#Cc2cnc(C(=O)[O-])cc2OC)c2ncccc12.[K+] shows Growth Rate at minimum 0.6?
-1

Check the entry Cc1ccc(S(=O)(=O)O)cc1.Cn1cc(Nc2nccc(N3CC4CCC(C3)N4C(=O)[C@@H]3CC3(F)F)n2)cn1 : does Growth Rate equal or exceed 0.6?
1

Please tell me: is the compound CCn1c(-c2nc3cc(C(=O)N4CCCC(N)C4)ccc3n2C)cc2ccccc21.Cl (configuration not stated) at or over 0.6 in terms of Growth Rate?
1

Hello, I need to know if O=C1C[C@@H]2OCC=C3CN4CC[C@]56c7ccccc7N1[C@H]5[C@H]2[C@H]3C[C@H]46 has measured Growth Rate not below 0.6. Thanks!
1

Please tell me: is the compound Cc1cc(-c2nc(-c3ccc(OC(F)(F)F)cc3)no2)nn1Cc1ccnc(N2CCN(C3CC3)CC2)c1 at or over 0.6 in terms of Growth Rate?
-1

In plain terms: is recorded Growth Rate at least 0.6 for CO[C@H]1C[C@@H]2CC[C@@H](C)[C@@](O)(O2)C(=O)C(=O)N2CCCC[C@H]2C(=O)O[C@H]([C@H](C)C[C@@H]2CC[C@@H](O)[C@H](OC)C2)CC(=O)[C@H](C)/C=C(\C)[C@@H](O)[C@@H](OC)C(=O)[C@H](C)C[C@H](C)/C=C/C=C/C=C/1C ?
1

Hi, just wondering whether CNc1ncc2cc(-c3ccc(-c4ncccc4F)cc3Cl)c(=O)n(C[C@H]3OC[C@H](N)CO3)c2n1 shows Growth Rate of 0.6 or higher.
-1

Could you verify whether the entry CN(C)CC#Cc1ccc2[nH]c3c(c2c1)-c1nc(N)ncc1CCC3 shows Growth Rate of no less than 0.6?
-1

Could you tell me if the measured Growth Rate of O=C(Nc1ccc(-n2nc(-c3cccnc3)cc2C(F)(F)F)cn1)c1ccc(-c2ccccc2)c(F)c1 reaches 0.6 or more?
1

hey, is Growth Rate for this one >= 0.6? O=C(Nc1cc(-c2cn[nH]c2)ccc1N1CCOCC1)c1ccc(-c2ccc3ncccc3c2)o1
1

Check if Growth Rate >= 0.6 (inclusive). Item: CC[C@@H](C(=O)OC)n1c(=O)c2ccccc2n(Cc2cn(C)c3cccc(C)c23)c1=O
-1

Determine whether this compound has Growth Rate no lower than 0.6: NC(=O)OC[C@H](NC(=O)Cn1nc(-c2ccc(Cl)cc2)n(C[C@H](O)C(F)(F)F)c1=O)c1cccc(C(F)(F)F)c1
1

# bool: Growth Rate of Nc1ncc2c(n1)-c1c([nH]c3ccc(C4=CCOCC4)cc13)CCC2 >= 0.6
1

Item O=C(CNC(=O)c1ccc(-c2ccccc2)cc1)NC1CCCc2ccccc21 (configuration not stated) with Growth Rate of 0.6 or above?
-1

Given CN1CCN(c2ccc(/C=C(\C#N)c3ccccc3Br)cc2)CC1.Cl.Cl , state whether its Growth Rate is at least 0.6.
-1

Please indicate if the recorded Growth Rate for O=C(O)C[C@H]1CCn2c1c(Sc1ccc(Cl)cc1)c1ccc(F)cc12 meets or exceeds 0.6.
1
